# targetOrSystem: T1, cynomolgus monkey IGSF8 expressed on CT26 cells (cynomolgus monkey, UniProt Q969P0 28-613 (human entry))
# T1 sequence: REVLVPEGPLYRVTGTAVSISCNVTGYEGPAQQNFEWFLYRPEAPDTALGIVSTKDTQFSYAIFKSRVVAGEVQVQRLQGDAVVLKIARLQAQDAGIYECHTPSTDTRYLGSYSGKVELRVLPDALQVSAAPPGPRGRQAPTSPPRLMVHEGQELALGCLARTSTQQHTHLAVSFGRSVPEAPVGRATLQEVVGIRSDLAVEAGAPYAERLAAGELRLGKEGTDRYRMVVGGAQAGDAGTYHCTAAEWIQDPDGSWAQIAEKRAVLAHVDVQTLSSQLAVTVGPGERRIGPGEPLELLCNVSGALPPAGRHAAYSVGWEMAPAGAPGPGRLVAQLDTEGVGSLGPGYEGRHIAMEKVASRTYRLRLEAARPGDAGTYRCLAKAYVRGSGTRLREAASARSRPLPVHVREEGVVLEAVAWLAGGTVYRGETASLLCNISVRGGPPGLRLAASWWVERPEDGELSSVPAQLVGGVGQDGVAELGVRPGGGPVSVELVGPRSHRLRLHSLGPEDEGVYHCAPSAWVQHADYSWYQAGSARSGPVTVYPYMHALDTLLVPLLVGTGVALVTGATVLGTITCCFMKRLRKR
# assayName: FACS on CT26 cells expressing IGSF8
# Experimental: To test cross reactivity of the L1, and L2 antibodies, CT26 cells with forced human, cynomolgus monkey, or mouse IGSF8 expression were generated by lentiviral delivery. […] Cells were washed twice with wash buffer and analyzed on a FACS analyzer (CytoFlex, Beckman). […] The EC50 cell binding potenct was calculated using nonlinear regression curve fit.
quantityKind: EC50 (µg/mL)
// note: answer is a bare numeric in µg/mL

[
  {
    "binder": "L2-10 (antibody, V domains shown, also called L2-10-IgG1) VH: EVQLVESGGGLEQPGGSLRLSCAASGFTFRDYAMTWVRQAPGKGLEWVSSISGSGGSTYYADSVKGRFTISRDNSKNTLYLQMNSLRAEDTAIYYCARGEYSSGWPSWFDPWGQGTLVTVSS VL: DIQMTQSPSSLSASVGDRVTITCRASRTVGTFLNWYQQKPGKAPKALILHTSILEGGVPSRFSGSGSGTDFTLTISSLQPEDIATYYCQQSHDVPRTFGQGTKVEIK",
    "experimentalValue": 0.041
  },
  {
    "binder": "L2-01 (antibody, V domains shown, Expressed in CHO cells; also called L2 antibody; L2-01-IgG1) VH: EVQLVESGGGLEQPGGSLRLSCAGSGFTFRDYAMTWVRQAPGKGLEWVSSISGSGGNTYYADSVKGRFTISRDNSKNTLYLQMNSLRAEDTAIYYCARGEYSSGWPSWFDPWGQGTLVTVSS VL: EIVLTQSPSSLSASVGDRVTISCRASRTVGTFLNWYQQRPGKPPQALILGVSILEGGVSSRFSGAGSGTEFSLTISSLQPEDIGTYYCQQSHDVPRTFGQGTKVDLR",
    "experimentalValue": 0.212
  }
]

Next:
Data request: State its EC50: L1-20 (antibody, IgG1, V domains shown, also called L1-20-IgG1) VH: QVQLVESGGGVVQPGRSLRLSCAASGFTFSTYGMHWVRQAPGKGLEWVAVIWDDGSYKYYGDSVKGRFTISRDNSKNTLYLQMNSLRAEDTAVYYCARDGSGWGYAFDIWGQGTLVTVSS VL: DIQLTQSPSSLSASVGDRVTITCQASQDIEWWLNWYQQKPGKAPKLLIYGSPNLETGVPSRFSGSGSGTDFTFTISSLQPEDIATYYCQQYDSFPYTFGQGTKVEIK
Data returned: 0.0268
